Quick reference for growth among some compounds
Tested on: RPMI-8226 leukemia
Assay: NCI-60 one-dose screen, 48 h (100 = growth as untreated, 0 = no growth, -100 = all killed)
Details: 10 µM unless noted
This is part of a sample that, as a whole, favours compounds with a hit. Of some 83,000 tested, about 20% had one in any assay.
Write down the numeric answer in % and omit the unit.

[
  {
    "COMPOUND": "COc1ccc(-c2cc(-c3nnc(SCC(=O)Nc4ccc(C(C)=O)cc4)n3-c3ccccc3)c3ccccc3n2)cc1OC",
    "growth / %": 105
  }
]

// growth lookup, key: "c1ccc(Nc2ccc(Nc3nc(-c4ccccc4)nc4ccccc34)cc2)cc1"
48.9

Now the same for C/C(=C\CCc1ccoc1)CC/C=C(\C)CCCC1COC(=O)C1 (centres undefined)
97.1

Now the same for CC(NC(N)=S)c1ccccc1 (centres undefined)
116

Now the same for "COc1ccc2c(c1)CC/C(=C\c1ccc(OCC(=O)Nc3nc4ccccc4s3)cc1)C2=O"
85.4

Now the same for "O[N+]1=CC=CCC1=S.On1ccccc1=S.[Zn]"
-32.6

Now the same for "CN1CCN(c2nc3scc(-c4ccccc4)c3c(=O)[nH]2)CC1"
97.4

Now the same for "CCOc1nc(-c2ccco2)n2nc(-c3ccco3)cc2n1"
84.4

Now the same for "COc1ccc(-c2nnc3c4[nH]cnc4ncn23)c(OC)c1"
9.32

Now the same for "O=c1ncc(-c2ccc(C(F)(F)F)cc2)c(NC2CCCCCC2)[nH]1"
5

Now the same for "CCOC(=O)CCN(c1c(Cl)ssc1=O)C(C)C"
105

Now the same for "N#Cc1c(-c2ccccc2)cc(-c2ccccc2)n(CC(=O)O)c1=O"
50.4

Now the same for "COc1ccc2c(c1)[n+](=O)c(C(=O)/C=C/c1cc(OC)c(OC)c(OC)c1)c(C)n2[O-]"
32.3

Now the same for "COc1ccc(C(=O)COc2ccc(/C=C3\Oc4ccc5ccccc5c4C3=O)cc2)cc1"
66.8

---

Test system: SK-MEL-5 melanoma
Test: NCI-60 one-dose screen, 48 h (100 = growth as untreated, 0 = no growth, -100 = all killed)
Details: 10 µM unless noted
About 83,000 compounds went through this panel and 20% of them were active in at least one assay; those are over-represented in the sample as a whole.
I'd appreciate it if you marked entries 1.0 when growth is lower than 70% and 0.0 when it is not.

// known answers, use as guide
[
  {
    "COMPOUND": "CCOc1cc(/C=C/C(=O)C(C(=O)/C=C/c2ccc(OC(=O)CNc3nc4ccccc4[nH]3)c(OCC)c2)C(=O)CNc2nc3ccccc3[nH]2)ccc1OC(=O)CNc1nc2ccccc2[nH]1",
    "GROUP": 1.0
  },
  {
    "COMPOUND": "Oc1c(N=Nc2nn[nH]n2)ccc2ccccc12",
    "GROUP": 1.0
  },
  {
    "COMPOUND": "Cc1cc(=O)oc2cc(OCCn3c(C)nn(-c4ccc(Cl)cc4)c3=O)ccc12",
    "GROUP": 1.0
  },
  {
    "COMPOUND": "COc1cc(/C=C/C(=O)c2c(C)n([O-])c3ccc(Cl)cc3[n+]2=O)cc(OC)c1OC",
    "GROUP": 1.0
  },
  {
    "COMPOUND": "C[C@@H]1[C@H]2[C@H](C=C3[C@@H]4CC[C@H]5Cc6nc7c(nc6C[C@]5(C)[C@H]4C[C@@H](O)[C@@]32C)C[C@@H]2CC[C@H]3C4=C[C@@H]5O[C@@]6(CC[C@](C)(CO)O6)[C@@H](C)[C@@]5(O)[C@@]4(C)[C@H](O)C[C@@H]3[C@@]2(C)C7)O[C@]12CCC(C)(C)O2",
    "GROUP": 1.0
  },
  {
    "COMPOUND": "Cc1ccc(-c2cc(-c3ccccc3)n(-c3ccccc3)n2)cc1",
    "GROUP": 0.0
  },
  {
    "COMPOUND": "O=C1OC(Oc2ccccc2)(c2ccccc2)c2ccccc21 (stereo not drawn)",
    "GROUP": 0.0
  },
  {
    "COMPOUND": "CN(C)c1ncnc2c1ncn2C1CCCCO1 (stereo not drawn)",
    "GROUP": 0.0
  },
  {
    "COMPOUND": "O=C(Nc1ccccc1OC(=O)c1ccccc1)c1ccccc1",
    "GROUP": 0.0
  },
  {
    "COMPOUND": "Oc1c(Cl)cc(Oc2cc(Cl)c(O)c(CN3CCOCC3)c2)cc1CN1CCOCC1",
    "GROUP": 0.0
  }
]

Report whether reported growth is lower than 70% (strictly) for "N#Cc1ccccc1C#Cc1ccccc1C#Cc1ccc(OCCCCCCOc2ccc(C#Cc3ccccc3C#Cc3ccccc3C#N)cc2)cc1"
0.0

Now the same for CC(=O)N1N=C(c2ccc(C(F)(F)F)cc2)CC1c1ccc2c(c1)OCO2 (stereo not drawn)
0.0

Now the same for "O=C(COc1cccc(/C=C2\Oc3ccc4ccccc4c3C2=O)c1)c1ccc([N+](=O)[O-])cc1"
0.0
